# ASSAY SYSTEM: Vitamin D3 receptor (Homo sapiens)
# Sequence (P11473 whole entry): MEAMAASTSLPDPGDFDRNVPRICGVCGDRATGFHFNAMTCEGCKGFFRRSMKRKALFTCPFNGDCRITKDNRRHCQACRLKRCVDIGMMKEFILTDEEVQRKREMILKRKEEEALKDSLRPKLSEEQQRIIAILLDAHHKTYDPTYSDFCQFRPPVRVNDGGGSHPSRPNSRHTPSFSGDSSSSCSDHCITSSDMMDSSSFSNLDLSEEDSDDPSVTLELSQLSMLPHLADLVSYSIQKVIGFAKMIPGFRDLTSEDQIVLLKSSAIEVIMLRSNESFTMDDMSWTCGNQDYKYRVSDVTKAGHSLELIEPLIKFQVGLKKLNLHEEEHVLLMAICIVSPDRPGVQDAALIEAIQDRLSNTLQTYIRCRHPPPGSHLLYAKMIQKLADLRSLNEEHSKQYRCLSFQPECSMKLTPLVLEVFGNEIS
# TEST: Transactivation of human VDR expressed in HEK293 cells cotransfected with mouse VDRE, Tk-Sppx3-LUC reporter plasmid measured after 24 hrs by luciferase reporter assay
# Format: cell-based
METRIC: pEC50
Reminder that pEC50 means the negative base-10 logarithm of the concentration expressed in mol/L.

Prompt: Give its pEC50 value. Item: "C=C1[C@H](O)CC(=C/C=C2\CCC[C@]3(C)[C@@H]([C@H](C)CC#C[C@H](O)CC45CC6CC(CC(C6)C4)C5)CC[C@@H]23)C[C@H]1O"
Response: 8.82

Prompt: Give its pEC50 value. Item: "C=C1[C@H](O)CC(=C/C=C2\CCC[C@]3(C)[C@@H]([C@H](C)CC#C[C@@H](O)C45CC6CC(CC(C6)C4)C5)CC[C@@H]23)C[C@H]1O"
Response: 10.15

Prompt: Give its pEC50 value. Item: "C=C1[C@H](O)CC(=C/C=C2\CCC[C@]3(C)[C@@H]([C@H](C)CC#C[C@H](O)C45CC6CC(CC(C6)C4)C5)CC[C@@H]23)C[C@H]1O"
Response: 8.18

Prompt: Give its pEC50 value. Item: "C=C1[C@H](O)CC(=C/C=C2\CCC[C@]3(C)[C@@H]([C@H](C)CC#C[C@@H](O)CC45CC6CC(CC(C6)C4)C5)CC[C@@H]23)C[C@H]1O"
Response: 8.96
